All values here come from PubChem BioAssay (EPA / NIEHS).

Read-out: C-C motif chemokine 2 (Homo sapiens)
Assay: BSK_KF3CT_MCP1: BioMAP Diversity Plus: KF3CT Assay for Monocyte Chemoattractant Protein 1 (MCP1/CCL2) Biomarker Activity (AID 2283073)
Conditions: primary human keratinocytes with fibroblasts; actives raise or lower the signal
Active and inactive are the calls of the source. Rule for the calls: active = hit-call score of the fitted dose curve at least 0.9, where 1 is the maximum; inactive = score below 0.9.
Outcomes: t = active, f = inactive

compound	class.name
CCOP(=S)(OCC)OP(=S)(OCC)OCC	f
CCOP(=O)(OCC)OC(=CCl)c1ccc(Cl)cc1Cl	t
CC(C)N(C(=O)CCl)c1ccccc1	t
O=S(=O)(c1ccc(Cl)cc1)c1cc(Cl)c(Cl)cc1Cl	f
OCCN(CCO)CCO	f
O=c1oc2ccccc2c(O)c1C(CC(O)c1ccc(-c2ccc(Br)cc2)cc1)c1ccccc1 (stereo unspecified)	t
Cc1cccc(OP(=O)(Oc2cccc(C)c2)Oc2cccc(C)c2)c1	f
Cc1ccccc1OP(=O)(Oc1ccccc1C)Oc1ccccc1C	t
COCC(=O)N(c1c(C)cccc1C)[C@H](C)C(=O)OC	f
CC(C)(C)c1ccccc1O	f
O=S(=O)(C(Cl)(Cl)Cl)C(Cl)(Cl)Cl	t
Cc1cc(Cl)ccc1OC(C)C(=O)O (stereo unspecified)	f
Cc1cc(C(C)(C)c2ccc(O)c(C)c2)ccc1O	f
COc1ccccc1N	f
Cc1cc(C)cc(C)c1	f
OC(Cc1ccccc1Cl)(Cn1[nH]cnc1=S)C1(Cl)CC1 (stereo unspecified)	f
O=C1C=CC(=O)c2ccccc21	t
CCOC(=O)CC(=O)CCl	f
CCOC(=O)C(SP(=S)(OC)OC)c1ccccc1 (stereo unspecified)	f
O=[N+]([O-])c1cccc2ccccc12	f
CCCCOC(=O)COC(=O)c1ccccc1C(=O)OCCCC	f
CC(C)(COCC1CO1)COCC1CO1 (stereo unspecified)	f
OC(Cc1ccccc1Cl)(Cn1cncn1)C1(Cl)CC1 (stereo unspecified)	f
N#CCCC(Br)(C#N)CBr (stereo unspecified)	t
Oc1cccc(-c2ccccc2)c1	f
Clc1cccc(Cl)c1Cl	f
